inhibition at 100 µM by entry:
tested on: PBMC; assay: Inhibition of human PBMC proliferation assessed as [3H]thymidine uptake at 100 uM after 3 days by scintillation counting; type: functional

Molecule smiles	inhibition at 100 µM / %
C/C=C(/C)C(=O)O[C@H]1c2cc3c(c(OC)c2-c2c(cc(OC)c(OC)c2O)C[C@H](C)[C@]1(C)O)OCO3	12.7
COc1cc2c(c(OC)c1OC)-c1c(cc3c(c1OC)OCO3)[C@H](OC(=O)c1ccccc1)[C@@](C)(O)[C@@H](C)C2	46.2
COc1cc2c(c(O)c1OC)-c1c(cc(OC)c(OC)c1OC)C[C@@H](C)[C@@H](C)C2	60.8
COc1cc([C@@H]2c3cc(OC)c(O)cc3C(=O)[C@@H](C)[C@H]2C)ccc1O	59.7
COc1cc2c(cc1O)C(=O)[C@@H](C)[C@@H](C)[C@@H]2c1ccc(OC)c(OC)c1	54.1
CC=C(C)C(=O)O[C@H]1c2cc3c(c(OC)c2-c2c(cc(OC)c(OC)c2OC)C[C@H](C)[C@]1(C)O)OCO3	36.1
COc1cc([C@@H]2c3cc(O)c(OC)cc3C(=O)[C@@H](C)[C@H]2C)ccc1O	56.9
C/C=C(/C)C(=O)O[C@H]1c2cc(OC)c(OC)c(OC)c2-c2c(cc(O)c(OC)c2OC)C[C@@H](C)[C@@]1(C)O	44.5
COc1cc([C@@H]2c3cc(OC)c(OC)cc3C(=O)[C@@H](C)[C@H]2C)ccc1O	61
COc1cc2c(c(O)c1OC)-c1c(cc(O)c(OC)c1OC)C[C@H](C)[C@H](C)C2	58.5
COc1cc(C[C@@H](C)[C@@H](C)Cc2cc(O)c(OC)c(OC)c2)cc(O)c1OC	63.9
COc1cc2c(cc1O)C(=O)[C@H](C)[C@@H](C)[C@@H]2c1ccc(OC)c(OC)c1	34.1
C/C=C(/C)C(=O)O[C@H]1c2cc(OC)c(OC)c(O)c2-c2c(cc3c(c2OC)OCO3)C[C@@H](C)[C@@]1(C)O	47
COc1cc2c(c(O)c1OC)-c1c(cc(O)c(OC)c1OC)C[C@@H](C)[C@@H](C)C2	54.7

Each recorded value in this set is attributed to ChEMBL document CHEMBL1154223.
